# experimentalSystem: F. trinervia PEPC (Flaveria trinervia, UniProt P30694)
# Construct: the full-length ppcA gene of PEPC from F. trinervia (EMBL-Bank X61304); made in house; host or cells: Escherichia coli BL21(DE3)
# Sequence (P30694 whole entry): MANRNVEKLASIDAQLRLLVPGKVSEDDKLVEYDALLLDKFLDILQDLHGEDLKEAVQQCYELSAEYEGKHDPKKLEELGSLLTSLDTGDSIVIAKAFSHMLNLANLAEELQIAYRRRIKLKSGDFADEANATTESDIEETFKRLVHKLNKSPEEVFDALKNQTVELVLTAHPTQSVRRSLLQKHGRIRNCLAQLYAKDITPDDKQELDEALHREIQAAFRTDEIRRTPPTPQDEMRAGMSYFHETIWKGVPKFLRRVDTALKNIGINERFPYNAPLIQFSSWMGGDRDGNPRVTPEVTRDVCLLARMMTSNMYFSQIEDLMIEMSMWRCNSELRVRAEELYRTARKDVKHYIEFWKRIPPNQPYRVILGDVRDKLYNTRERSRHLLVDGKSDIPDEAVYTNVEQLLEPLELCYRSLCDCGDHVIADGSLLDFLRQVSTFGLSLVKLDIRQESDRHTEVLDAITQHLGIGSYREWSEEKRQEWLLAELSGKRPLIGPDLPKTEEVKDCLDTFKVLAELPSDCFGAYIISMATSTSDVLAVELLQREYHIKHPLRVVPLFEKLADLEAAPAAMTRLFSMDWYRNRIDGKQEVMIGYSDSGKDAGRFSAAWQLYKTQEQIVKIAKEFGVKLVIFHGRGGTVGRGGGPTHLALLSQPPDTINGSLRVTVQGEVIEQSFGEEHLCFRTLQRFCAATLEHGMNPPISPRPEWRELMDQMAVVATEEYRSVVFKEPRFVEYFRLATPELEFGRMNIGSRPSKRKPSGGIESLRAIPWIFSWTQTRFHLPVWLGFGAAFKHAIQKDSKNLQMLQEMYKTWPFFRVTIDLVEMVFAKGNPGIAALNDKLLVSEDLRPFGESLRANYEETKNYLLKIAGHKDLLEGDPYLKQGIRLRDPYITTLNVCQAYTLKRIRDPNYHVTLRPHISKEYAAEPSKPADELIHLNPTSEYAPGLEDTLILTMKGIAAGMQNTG
# experimentalDetails: biochemical
# Type: biochemical
# conditionDetails: IC50 F. trinervia PEPC, C4 PEPC
# Protocol: The IC50 values of small molecule compounds on F. pringlei and F. trinervia PEPCs were determined using PEPC coupled spectrophotometric assay. The amount of NADH oxidized by NADH-malate dehydrogenase was measured by the decrease in absorbance at 340 nm in a Beckman DU-800 spectrophotometer, thus the value is in proportion to the corresponding substrate conversion of the enzyme. […] The data were analyzed using GraFit (Erithacus Software, UK).
measuredAttribute: IC50 (µM)
Express your answer in µM, writing the number without its unit.

>>> quantitativereadout("O=C(/C=C/c1ccccc1)c1ccccc1 [Compound 1, trans-Chalcone]")
77.5

Prompt line: For the molecule O=C(/C=C/c1ccc(O)c(O)c1)c1ccc(O)c(O)c1O [Compound 12, 2′,3′,4′,3,4-Pentahydroxy-chalcone] , what IC50 is on record?
Response line: 0.6

Prompt line: For the molecule O=C(/C=C/c1ccccc1)c1ccc(O)c(O)c1O [Compound 10, 2′,3′,4′-Trihydroxychalcone] , what IC50 is on record?
Response line: 4.2

Prompt line: For the molecule O=C(/C=C/c1ccc(O)cc1)c1ccc(O)cc1O [Compound 6, 2′,4′,4-Trihydroxychalcone] , what IC50 is on record?
Response line: 38.2

Prompt line: For the molecule O=C(/C=C/c1ccccc1)c1ccccc1O [Compound 2, 2′-Hydroxychalcone] , what IC50 is on record?
Response line: 51.9

---

# Tested on: Amaranthus retroflexus
# experimentalDetails: In planta growth experiment, A. retroflexus
# Type: in vivo
# conditionDetails: shoots sprayed, 3 mM
measuredAttribute: Influence on plants

Examples with answers:
>>> result("O=C(/C=C/c1ccccc1)c1ccc(O)c(O)c1O [Compound 10, 2′,3′,4′-Trihydroxychalcone]")
"Yes"
>>> result("O=C(/C=C/c1ccc(O)c(O)c1)c1c(O)cc(O)cc1O [Compound 11, 2′,4′,6′,3,4-Pentahydroxy-chalcone]")
"No"
>>> result("O=C(/C=C/c1ccc(O)cc1)c1ccc(O)cc1O [Compound 6, 2′,4′,4-Trihydroxychalcone]")
"No"
>>> result("O=C(/C=C/c1ccccc1)c1ccccc1 [Compound 1, trans-Chalcone]")
"No"
>>> result("O=C(/C=C/c1ccccc1)c1ccccc1O [Compound 2, 2′-Hydroxychalcone]")
"No"
>>> result("O=C(/C=C/c1ccccc1O)c1ccc(O)cc1O [Compound 7, 2′,4′,2-Trihydroxychalcone]")
"No"

Prompt line: For the compound O=C(/C=C/c1ccc(O)cc1)c1ccccc1O [Compound 3, 2′,4-Dihydroxychalcone] , what Influence on plants is on record?
Response line: No

Prompt line: For the compound O=C(/C=C/c1ccccc1)c1cc(O)ccc1O [Compound 5, 2′,5′-Dihydroxychalcone] , what Influence on plants is on record?
Response line: No

Prompt line: For the compound O=C(/C=C/c1ccc(O)c(O)c1)c1ccc(O)c(O)c1O [Compound 12, 2′,3′,4′,3,4-Pentahydroxy-chalcone] , what Influence on plants is on record?
Response line: Yes

---

# System: Bacillus subtilis 168
# experimentalDetails: Bacterial growth in microscale cultivation, B. subtilis
# Format: cell-based
# conditionDetails: Bacillus subtilis, 168, complex medium, 4 µM, relative to control; read-out: Final Backscatter
Quick reference: activity at 4 µM of the listed items.
Express your answer in %, writing the number without its unit.

Examples with answers:
>>> quantitativereadout("O=C(/C=C/c1ccc(O)cc1)c1ccc(O)cc1O [Compound 6, 2′,4′,4-Trihydroxychalcone]")
97.3
>>> quantitativereadout("O=C(/C=C/c1ccc(O)cc1)c1ccccc1O [Compound 3, 2′,4-Dihydroxychalcone]")
95.2
>>> quantitativereadout("O=C(/C=C/c1ccccc1)c1ccc(O)cc1O [Compound 4, 2′,4′-Dihydroxychalcone]")
92.2
>>> quantitativereadout("O=C(/C=C/c1ccc(O)c(O)c1)c1ccc(O)cc1O [Compound 8, 2′,4′,3,4-Tetrahydroxy-chalcone]")
100

// next item, activity at 4 µM requested
Prompt line: For the compound O=C(/C=C/c1ccccc1O)c1ccc(O)cc1O [Compound 7, 2′,4′,2-Trihydroxychalcone] , what activity at 4 µM is on record?
Response line: 99.9

---

# experimentalSystem: F. pringlei PEPC (Flaveria pringlei, UniProt Q01647)
# Construct: the full-length ppcA gene of PEPC from F. trinervia (EMBL-Bank X61304) and F. pringlei (EMBL-Bank Z48966) were cloned in pETEV16b; made in house; host or cells: Escherichia coli BL21-Gold(DE3)
# Sequence (Q01647 1-967): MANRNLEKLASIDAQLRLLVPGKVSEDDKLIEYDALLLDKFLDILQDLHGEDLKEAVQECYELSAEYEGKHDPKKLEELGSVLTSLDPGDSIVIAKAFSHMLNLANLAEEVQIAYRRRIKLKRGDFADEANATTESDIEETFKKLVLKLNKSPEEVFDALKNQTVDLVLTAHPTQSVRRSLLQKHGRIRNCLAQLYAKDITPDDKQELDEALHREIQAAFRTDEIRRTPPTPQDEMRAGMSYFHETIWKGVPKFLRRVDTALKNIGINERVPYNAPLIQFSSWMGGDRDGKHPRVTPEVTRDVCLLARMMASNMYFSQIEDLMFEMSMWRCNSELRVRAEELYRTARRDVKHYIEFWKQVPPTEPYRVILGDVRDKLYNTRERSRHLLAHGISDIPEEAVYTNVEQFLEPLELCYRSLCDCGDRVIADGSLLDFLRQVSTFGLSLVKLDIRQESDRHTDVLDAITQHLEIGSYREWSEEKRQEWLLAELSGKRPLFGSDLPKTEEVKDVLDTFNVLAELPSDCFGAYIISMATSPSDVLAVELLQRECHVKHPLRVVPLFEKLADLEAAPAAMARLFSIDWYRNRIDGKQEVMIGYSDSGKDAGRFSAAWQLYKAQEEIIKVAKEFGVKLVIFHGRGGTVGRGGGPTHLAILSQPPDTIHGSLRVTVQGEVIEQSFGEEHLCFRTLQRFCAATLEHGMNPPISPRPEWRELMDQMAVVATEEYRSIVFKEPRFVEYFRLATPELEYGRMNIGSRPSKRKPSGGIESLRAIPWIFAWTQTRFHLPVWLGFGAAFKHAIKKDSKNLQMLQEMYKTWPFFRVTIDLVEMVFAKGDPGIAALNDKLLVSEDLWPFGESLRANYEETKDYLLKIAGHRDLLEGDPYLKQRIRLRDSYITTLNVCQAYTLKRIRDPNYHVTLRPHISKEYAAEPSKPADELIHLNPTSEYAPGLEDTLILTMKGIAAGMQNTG
# experimentalDetails: PEPC coupled spectrophotometric assay, C3 PEPC
# Type: biochemical
# conditionDetails: read-out: IC50 F. pringlei PEPC
Note to self: IC50 under 50 µM means 1, ties and anything higher get 0.

>>> classname("O=C(/C=C/c1ccc(O)cc1)c1ccccc1O [Compound 3, 2′,4-Dihydroxychalcone]")
0

Prompt line: In the record for O=C(/C=C/c1ccc(O)c(O)c1)c1c(O)cc(O)cc1O [Compound 11, 2′,4′,6′,3,4-Pentahydroxy-chalcone] , is IC50 less than 50 µM?
Response line: 1

Prompt line: In the record for O=C(/C=C/c1ccccc1O)c1ccc(O)cc1O [Compound 7, 2′,4′,2-Trihydroxychalcone] , is IC50 less than 50 µM?
Response line: 0

Prompt line: In the record for O=C(/C=C/c1ccccc1)c1cc(O)ccc1O [Compound 5, 2′,5′-Dihydroxychalcone] , is IC50 less than 50 µM?
Response line: 0

Prompt line: In the record for O=C(/C=C/c1ccccc1)c1ccc(O)cc1O [Compound 4, 2′,4′-Dihydroxychalcone] , is IC50 less than 50 µM?
Response line: 0

---

# System: Escherichia coli K-12 MG1655
# experimentalDetails: Bacterial growth in microscale cultivation, E. coli
# Assay type: cell-based
# conditionDetails: Escherichia coli, MG1655, complex medium, 4 µM, relative to control; read-out: Final Backscatter
Quick reference: activity at 4 µM of the listed items.

Examples with answers:
>>> result("O=C(/C=C/c1ccc(O)cc1)c1ccccc1O [Compound 3, 2′,4-Dihydroxychalcone]")
"101%"
>>> result("O=C(/C=C/c1ccccc1O)c1ccc(O)cc1O [Compound 7, 2′,4′,2-Trihydroxychalcone]")
"97.2%"
>>> result("O=C(/C=C/c1ccc(O)c(O)c1)c1ccc(O)cc1O [Compound 8, 2′,4′,3,4-Tetrahydroxy-chalcone]")
"102%"
>>> result("O=C(/C=C/c1ccc(O)cc1)c1ccc(O)cc1O [Compound 6, 2′,4′,4-Trihydroxychalcone]")
"98.8%"

// next item, activity at 4 µM requested
Prompt line: For the compound O=C(/C=C/c1ccccc1)c1ccc(O)cc1O [Compound 4, 2′,4′-Dihydroxychalcone] , what activity at 4 µM is on record?
Response line: 101%
